FYI, the data here is from ChEMBL document CHEMBL2069243.

Tested on: Hepatitis C virus
Test: Antiviral activity against Hepatitis C virus 1b con1 infected in human hepatoma cells assessed as decrease in replicon RNA level after 3 days by RT-PCR analysis
Format: functional, organism-based, Hepacivirus hominis
Conditions: genotype 1b Con1, 72 h
# note: exactly 40 nM is not below, so it is class 0; use class 1 for EC50 strictly under it

Worked cases, answers included:
COc1cc(OC)cc([C@@H](C)Nc2nc(C)c(-c3nc4cnccc4s3)c(N[C@@H]3C[C@H](CO)[C@@H](O)[C@H]3O)n2)c1
class 1
Cc1nc(NC2CC2)nc(N[C@@H]2C[C@H](CO)[C@@H](O)[C@H]2O)c1-c1nc2cnccc2s1
class 0
Cc1ccc([C@@H](C)Nc2nc(C)c(-c3nc4cnccc4s3)c(N[C@@H]3C[C@H](CO)[C@@H](O)[C@H]3O)n2)cc1
class 0
COc1cc(CCNc2nc(C)c(-c3nc4cnccc4s3)c(N[C@@H]3C[C@H](CO)[C@@H](O)[C@H]3O)n2)cc(OC)c1
class 1
CCOCCNc1nc(C)c(-c2nc3cnccc3s2)c(N[C@@H]2C[C@H](CO)[C@@H](O)[C@H]2O)n1
class 1

**Q:** Input Cc1nc(N[C@H](C)c2ccccc2OC(F)(F)F)nc(N[C@@H]2C[C@H](CO)[C@@H](O)[C@H]2O)c1-c1nc2cnccc2s1 ; condition: EC50 strictly below 40 nM. Does it hold?
**A:** class 1

**Q:** Strictly below 40 nM in EC50? Cc1nc(N[C@H](C)c2ccc(OC(F)(F)F)cc2)nc(N[C@@H]2C[C@H](CO)[C@@H](O)[C@H]2O)c1-c1nc2c(C3CCC3)nccc2s1
**A:** class 1
